# Tgt: UniProt Q72547
Threshold 50 nM. IC50 below it: True. IC50 at it or above: False.

> print(dat)
                                   molecule    cat
1  CCc1c(C)[nH]c(=O)c(NNC(=S)Nc2ccccc2)c1Cc1cccc(C)c1  False
2  CCc1c(C)[nH]c(=O)c(N(C)C)c1Cc1cc(C)cc(C)c1   True
3  CCNC(=S)NNc1c(Cc2cccc(C)c2)c(CC)c(C)[nH]c1=O  False
4  CCc1c(C)[nH]c(=O)c(NNC(N)=S)c1Cc1cccc(C)c1  False

Query block: Take the molecule "Cc1cc(C)cc(Cc2c(C)c(C(C)C)[nH]c(=O)c2N(C)C)c1" and say whether its IC50 is less than 50 nM.
Result block: False

Query block: Similarly, "Cc1cc(C)cc(Cc2cc[nH]c(=O)c2N(C)C)c1" ?
Result block: False

Query block: Similarly, "CCc1[nH]c(=O)c(N(C)C)c(Cc2cc(C)cc(C)c2)c1C" ?
Result block: True

Query block: Similarly, "Cc1cc(C)cc(Cc2cc(C)[nH]c(=O)c2N(C)C)c1" ?
Result block: False

Query block: Similarly, "Cc1cc(C)cc(Cc2c3c([nH]c(=O)c2N(C)C)CCCC3)c1" ?
Result block: True

Query block: Similarly, CCC1C(Cc2cccc(C)c2)=C(N(C)CCO)C(=O)NC1C (stereo not drawn) ?
Result block: True

Query block: Similarly, "Cc1cc(C)cc(Cc2c(C)c(C)[nH]c(=O)c2N(C)C)c1" ?
Result block: True
